tested.on: sRAGE (β-amyloid as the RAGE ligand) (Homo sapiens, UniProt Q15109)
Sequence (Q15109 23-342 limits assumed): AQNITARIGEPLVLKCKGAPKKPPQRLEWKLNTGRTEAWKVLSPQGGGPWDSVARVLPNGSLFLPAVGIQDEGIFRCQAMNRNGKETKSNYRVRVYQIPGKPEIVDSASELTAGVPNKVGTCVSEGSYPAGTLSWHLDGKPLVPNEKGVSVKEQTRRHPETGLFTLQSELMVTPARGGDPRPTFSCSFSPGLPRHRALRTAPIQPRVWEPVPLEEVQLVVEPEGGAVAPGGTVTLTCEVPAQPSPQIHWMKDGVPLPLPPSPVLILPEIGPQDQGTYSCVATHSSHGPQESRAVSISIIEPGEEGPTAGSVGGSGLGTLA
protocol.text: General binding assay: inhibition of sRAGE binding to plate-bound β-amyloid
condition.context: range of individual determinations, n = 11, hydrochloride salt, read-out: IC50 (β-amyloid)
quantity: IC50

Query block: Please tell me: IC50 of `Cc1nn(C2CCCCC2)c(C)c1S(=O)(=O)N1CCC(CN(CC(C)C)S(=O)(=O)c2ccc(CNCC3CCNCC3)cc2)(c2ccccc2)CC1` , system sRAGE (β-amyloid as the RAGE ligand) (Homo sapiens, UniProt Q15109)?
Result block: 270 to 600 nM
